All figures here come from ChEMBL document CHEMBL2146401.

Experiment: Cytotoxicity against african green monkey Vero cells assessed as cell viability after 2 days by MTS/PMS assay
Format: cell-based
Conditions: chlorocebus sabaeus
measurement.type: CC50 at 48 h

For the molecule shown here, Nc1ncnc2c1nnn2[C@@H]1c2ccccc2C[C@H]1O , give the reported CC50 at 48 h.
> 500 µM

For the molecule shown here, Nc1ncnc2c1nnn2[C@@H]1c2ccccc2C[C@@H]1O , give the reported CC50 at 48 h.
202 µM

For the molecule shown here, O[C@H]1Cc2ccccc2[C@@H]1n1cnc2c(Cl)ncnc21 , give the reported CC50 at 48 h.
> 500 µM

For the molecule shown here, Oc1ncnc2c1nnn2[C@@H]1c2ccccc2C[C@@H]1O , give the reported CC50 at 48 h.
> 500 µM

For the molecule shown here, Oc1ncnc2c1nnn2[C@H]1c2ccccc2C[C@H]1O , give the reported CC50 at 48 h.
> 500 µM

For the molecule shown here, Oc1ncnc2c1nnn2[C@@H]1c2ccccc2C[C@H]1O , give the reported CC50 at 48 h.
> 500 µM

###

Experiment: Cytotoxicity against african green monkey Vero cells assessed as cell viability after 72 hrs by MTS/PMS assay
Format: cell-based
Settings: chlorocebus sabaeus
measurement.type: CC50 at 72 h (µM)
Use µM as the unit, but write only the number.

For the molecule shown here, O[C@@H]1Cc2ccccc2[C@@H]1n1cnc2c(Cl)ncnc21 , give the reported CC50 at 72 h.
254

###

System: Hepatitis B virus
Test: Antiviral activity against Hepatitis B virus infected in HepG2(2.2.15) cells assessed as reduction in HBsAg level at 100 uM after 9 days by ELISA relative to control
Format: functional
Conditions: HepG2 2.2.15, 216 h
Label condition met for high-side inhibition at 100 µM (at or above 30%) and condition not met for low-side inhibition at 100 µM (below it).

Threshold query (inhibition at 100 µM >= 30%) on O[C@@H]1Cc2ccccc2[C@H]1n1cnc2c(Cl)ncnc21
condition not met

Threshold query (inhibition at 100 µM >= 30%) on Oc1ncnc2c1nnn2[C@H]1c2ccccc2C[C@@H]1O
condition not met

Threshold query (inhibition at 100 µM >= 30%) on Nc1ncnc2c1nnn2[C@@H]1c2ccccc2C[C@@H]1O
condition not met

Threshold query (inhibition at 100 µM >= 30%) on Nc1ncnc2c1nnn2[C@@H]1c2ccccc2C[C@H]1O
condition met

Threshold query (inhibition at 100 µM >= 30%) on Oc1ncnc2c1nnn2[C@H]1c2ccccc2C[C@H]1O
condition not met

Threshold query (inhibition at 100 µM >= 30%) on O[C@H]1Cc2ccccc2[C@@H]1n1cnc2c(Cl)ncnc21
condition not met

Threshold query (inhibition at 100 µM >= 30%) on Oc1ncnc2c1nnn2[C@@H]1c2ccccc2C[C@@H]1O
condition met

Threshold query (inhibition at 100 µM >= 30%) on Nc1ncnc2c1nnn2[C@H]1c2ccccc2C[C@H]1O
condition met

Threshold query (inhibition at 100 µM >= 30%) on Oc1ncnc2c1nnn2[C@@H]1c2ccccc2C[C@H]1O
condition not met

Threshold query (inhibition at 100 µM >= 30%) on Nc1ncnc2c1nnn2[C@H]1c2ccccc2C[C@@H]1O
condition met

###

Assay: Cytotoxicity against african green monkey Vero cells assessed as cell viability after 2 days by MTS/PMS assay
Format: cell-based
Settings: chlorocebus sabaeus
Provide the recorded CC50 at 48 h for the entries that follow.

For the compound shown here, Nc1ncnc2c1nnn2[C@H]1c2ccccc2C[C@H]1O , give the reported CC50 at 48 h.
> 500 µM

For the compound shown here, O[C@H]1Cc2ccccc2[C@H]1n1cnc2c(Cl)ncnc21 , give the reported CC50 at 48 h.
> 500 µM

For the compound shown here, Oc1ncnc2c1nnn2[C@H]1c2ccccc2C[C@@H]1O , give the reported CC50 at 48 h.
> 500 µM

For the compound shown here, Nc1ncnc2c1nnn2[C@H]1c2ccccc2C[C@@H]1O , give the reported CC50 at 48 h.
311 µM

For the compound shown here, O[C@@H]1Cc2ccccc2[C@H]1n1cnc2c(Cl)ncnc21 , give the reported CC50 at 48 h.
> 500 µM
